Assay Protocol: APR_HepG2_P-H2AX_72hr: Apredica 72-hour HepG2 Assay for H2AX Phosphorylation (AID 2282916);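 note: phospho-histone H2A.x immunostain intensity per cell marking DNA damage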
Conditions: imaging, actives raise or lower the signal
Active and inactive are the calls of the source. Rule for the calls: active = hit-call score of the fitted dose curve at least 0.9, where 1 is the maximum; inactive = score below 0.9.
Could you please pick one outcome from this set? 1 (yes) (active), 0 (no) (inactive)

Record excerpt, results attached:
| Compound | Class Assignment |
| --- | --- |
| CCN(CC)C(=O)SCc1ccc(Cl)cc1 | 0 (no) |
| CC(C)(C)C(O)C(Oc1ccc(Cl)cc1)n1cncn1 (stereo not given) | 0 (no) |
| CCC(C)(C)C(=O)OC1=C(c2ccc(Cl)cc2Cl)C(=O)OC12CCCCC2 | 0 (no) |
| O=C(O)CCCOc1ccc(Cl)cc1Cl | 0 (no) |
| O=C(Nc1ccccc1)Nc1cnns1 | 1 (yes) |
| CC(C)OC(=O)Nc1cccc(Cl)c1 | 0 (no) |
| COc1nn(CSP(=S)(OC)OC)c(=O)s1 | 0 (no) |
| O=S1OCC2C(CO1)C1(Cl)C(Cl)=C(Cl)C2(Cl)C1(Cl)Cl (stereo not given) | 0 (no) |

Continue with the next compound.
Problem: Outcome? "CCCN(CCOc1c(Cl)cc(Cl)cc1Cl)C(=O)n1ccnc1"
Result: 0 (no)
